Compiled record: pIC50 values for Coagulation factor XI (Homo sapiens) across several sources.
pIC50: −log10 of the molar value.
measured.property: pIC50

Sample answers from the record:
Entry `Nc1c(Cl)c(-c2ncccc2F)nn1CC(=O)N1CCC[C@@]2(C1)OC(=O)Nc1ccc(Cl)c(F)c12` ; pIC50 = 6.75

Entry COCCC(C(=O)Nc1ccc(C(N)=O)c(F)c1)n1cc2c(cc1=O)-c1cc(Cl)ccc1CC(C(F)(F)F)OC2 (mixture of isomers) ; pIC50 = 7.59

Entry COCCC(C(=O)Nc1cc(F)c(C(N)=O)s1)n1cc(OC)c(-c2cc(Cl)ccc2C#N)cc1=O (single isomer, unassigned; enantiomer 1) ; pIC50 = 7.57

Entry Cc1ncc(-c2c(C#N)ccc(Cl)c2F)nc1C(=O)Nc1cnn(C(C)c2cnc(N3C[C@H]4C[C@H]4C3=O)c(F)c2C)c1 (single isomer, unassigned) ; pIC50 = 5.31

Entry `COc1cc(Cn2cc(NC(=O)c3cncc(-c4c(C(F)F)ccc(Cl)c4F)n3)cn2)cnc1N1C[C@H]2C[C@H]2C1=O` ; pIC50 = 6.37

I. COc1cc(NC(=O)C(C[C@@H]2CCCCO2)n2cc(OC)c(-c3cc(Cl)ccc3OCC(F)(F)F)cc2=O)ccc1C(=O)O (stereo partly shown)
II. COC(=O)Nc1ccc(-c2cnc(C(CC3CC3)c3ccc(-c4cc(Cl)ccc4-n4cnnn4)c[n+]3[O-])[nH]2)c(F)c1 (single isomer, unassigned)
III. Cc1c(CO)cccc1-n1ncc(C(=O)N2CCC[C@@]3(C2)OC(=O)Nc2ccc(Cl)c(F)c23)c1N
IV. N=C(N)c1cn(-c2cc(Br)ccc2C(=O)N2CCNCC2)c2ccccc12
Could you please order the items by pIC50, going from the lowest number to the highest? Please, when replying, give the labels in the order that was requested.
IV, III, I, II
(IV: 4.09, III: 5.80, I: 8.66, II: 9.32)
